- target entity: human somatostatin receptor subtype 5 (Homo sapiens)
- assay protocol: cAMP assay for SST5R (inhibition of cAMP via human SST5 receptor)
pEC50: −log10 of the molar value.
Could you please report measured pEC50 for the items listed next?

Study these solved cases before continuing.
[
  {
    "molecule": "C[C@]1(N)CCN(c2c(-c3ccnc(C#N)c3)cncc2-c2nc3cccc(Cl)c3[nH]2)C1 [Compound 2-163]",
    "result": "> 8.00"
  },
  {
    "molecule": "C[C@]1(N)CCN(c2c(-c3cccc(C#N)c3)cncc2-c2nc3cccc(C#N)c3[nH]2)C1 [Compound 2-177]",
    "result": "> 8.00"
  },
  {
    "molecule": "Cn1c(-c2cncc(-c3ccc(F)c(C#N)c3)c2N2CC[C@H](N)C2)nc2cccc(Cl)c21 [Compound 2-133]",
    "result": "> 8.00"
  },
  {
    "molecule": "N[C@H]1CCN(c2c(-c3cc(F)cc(Cl)c3)cncc2-c2nc3ccc(Cl)cc3[nH]2)C1 [Compound 2-95]",
    "result": "7.00 to 8.00"
  },
  {
    "molecule": "CO/N=C/c1cccc(-c2cncc(-c3nc4cccc(F)c4[nH]3)c2N2CC[C@H](N)C2)c1 [Compound 2-12]",
    "result": "7.00 to 8.00"
  },
  {
    "molecule": "Cn1c(-c2cncc(-c3cc(F)cc(C#N)c3)c2N2CC[C@H](N)C2)nc2ccccc21 [Compound 2-110]",
    "result": "7.00 to 8.00"
  }
]

Could I get pEC50 for every one of these entries?
1. CC(N)C1CN(c2c(-c3nc4cc(F)cc(F)c4[nH]3)cncc2-c2cccc(F)c2Cl)C1 (stereo not drawn) [Compound 1-74]
2. N#Cc1cc(F)cc(-c2cncc(-c3nc4cccc(F)c4[nH]3)c2N2CCC(N)(C(F)(F)F)C2)c1 (stereo not drawn) [Compound 2-78]

# output
1: > 8.00; 2: 6.00 to 7.00

====

Could you please report measured pEC50 for the items listed next?
- target entity: human somatostatin receptor subtype 5 (Homo sapiens)
- assay protocol: cAMP assay for SST5R (inhibition of cAMP via human SST5 receptor)
pEC50: −log10 of the molar value.

Study these solved cases before continuing.
[
  {
    "compound": "Cc1cc(F)cc(-c2cncc(-c3nc4cc(F)cc(F)c4[nH]3)c2N2CC(C(N)CO)C2)c1 (stereo not shown)",
    "pEC50": "> 8.00"
  },
  {
    "compound": "Cc1cc(C)cc(-c2cncc(-c3nc4cc(F)cc(F)c4[nH]3)c2N2CC(CN)C2)c1",
    "pEC50": "7.00 to 8.00"
  },
  {
    "compound": "NC(=O)c1cc(-c2cncc(-c3nc4cccc(F)c4[nH]3)c2N2CC[C@H](N)C2)ccc1F",
    "pEC50": "7.00 to 8.00"
  },
  {
    "compound": "Cc1cccc(-c2cncc(-c3nc4cc(F)cc(F)c4[nH]3)c2N2CC(CN)C2)c1F",
    "pEC50": "6.00 to 7.00"
  },
  {
    "compound": "Cc1cc(F)cc(-c2cncc(-c3nc4cc(C#N)cc(F)c4[nH]3)c2N2CC(CN)C2)c1",
    "pEC50": "6.00 to 7.00"
  },
  {
    "compound": "Cc1ccnc2[nH]c(-c3cncc(-c4cccc(C#N)c4)c3N3CC[C@](C)(N)C3)nc12",
    "pEC50": "> 8.00"
  }
]

Turning now to a further record.
# input Report pEC50 for N#Cc1c(Cl)cccc1-c1cncc(-c2nc3cccc(F)c3[nH]2)c1N1CC[C@H](N)C1
# output > 8.00

====

- target entity: human somatostatin receptor subtype 5 (Homo sapiens, UniProt P35346)
- Sequence (P35346 whole entry): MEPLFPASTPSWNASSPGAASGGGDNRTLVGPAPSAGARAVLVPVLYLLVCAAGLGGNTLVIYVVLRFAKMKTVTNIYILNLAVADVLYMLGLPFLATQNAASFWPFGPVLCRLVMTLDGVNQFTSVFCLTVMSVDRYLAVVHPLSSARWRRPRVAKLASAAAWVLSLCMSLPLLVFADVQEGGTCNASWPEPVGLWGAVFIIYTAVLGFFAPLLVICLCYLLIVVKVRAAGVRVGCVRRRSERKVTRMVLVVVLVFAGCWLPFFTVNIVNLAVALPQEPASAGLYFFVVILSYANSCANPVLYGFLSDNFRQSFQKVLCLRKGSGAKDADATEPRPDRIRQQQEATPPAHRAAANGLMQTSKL
- assay protocol: cAMP assay for SST5R (inhibition of cAMP via human SST5 receptor)
pEC50: −log10 of the molar value.
observation type: pEC50

[
  {
    "compound": "COc1ccnc2nc(-c3cncc(-c4ccc(F)c(C#N)c4)c3N3CC[C@](C)(N)C3)[nH]c12",
    "pEC50": "> 8.00"
  },
  {
    "compound": "Cc1ccnc2nc(-c3cncc(-c4cccc(Cl)c4)c3N3CCC(N)CC3)[nH]c12",
    "pEC50": "< 6.00"
  },
  {
    "compound": "NCC1CN(c2c(-c3ccccc3)cncc2-c2nc3c(F)cc(F)cc3[nH]2)C1",
    "pEC50": "7.00 to 8.00"
  },
  {
    "compound": "Cc1c(F)ccc2nc(-c3cncc(-c4cc(F)cc(C#N)c4)c3N3CC[C@H](N)C3)[nH]c12",
    "pEC50": "> 8.00"
  }
]

Turning now to a further record.
# input Report pEC50 for CC(N)C1CN(c2c(-c3ccc(F)c(C#N)c3)cncc2-c2nc3cc(F)cc(F)c3[nH]2)C1 (centres unmarked)
# output > 8.00

====

Could you please report measured EC50 for the items listed next?
- target entity: human somatostatin receptor subtype 2 (Homo sapiens, UniProt P30874)
- Sequence (P30874 whole entry): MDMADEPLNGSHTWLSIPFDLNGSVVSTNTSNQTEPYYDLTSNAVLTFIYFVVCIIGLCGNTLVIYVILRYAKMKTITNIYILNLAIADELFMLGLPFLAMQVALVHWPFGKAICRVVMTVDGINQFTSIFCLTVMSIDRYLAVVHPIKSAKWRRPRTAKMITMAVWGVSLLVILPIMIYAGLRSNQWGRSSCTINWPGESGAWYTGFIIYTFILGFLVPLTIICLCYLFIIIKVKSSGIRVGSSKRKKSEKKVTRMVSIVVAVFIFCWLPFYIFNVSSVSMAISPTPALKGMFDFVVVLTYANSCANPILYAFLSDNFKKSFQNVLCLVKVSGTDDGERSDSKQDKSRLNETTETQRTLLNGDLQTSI
- assay protocol: cAMP assay for SST2R (inhibition of cAMP via human SST2 receptor)
- condition context: Table B, read-out: SST2 potency

Study these solved cases before continuing.
[
  {
    "compound": "Cc1ccnc2nc(-c3cncc(-c4cc(F)c(F)c(C#N)c4)c3N3CCC(C)(N)C3)[nH]c12 (stereo not shown)",
    "EC50": "10 to 100 nM"
  },
  {
    "compound": "Cc1cccc2nc(-c3cncc(-c4ccc(F)c(C#N)c4)c3N3CC[C@H](N)C3)[nH]c12",
    "EC50": "100 to 1000 nM"
  },
  {
    "compound": "Cc1cccc2nc(-c3cncc(-c4ccnc(C#N)c4)c3N3CC[C@H](N)C3)[nH]c12",
    "EC50": "100 to 1000 nM"
  },
  {
    "compound": "N#Cc1cc(-c2cncc(-c3nc4cccc(F)c4[nH]3)c2N2CC[C@H](N)C2)ccc1Cl",
    "EC50": "100 to 1000 nM"
  },
  {
    "compound": "CCn1c(-c2cncc(-c3cc(F)cc(C#N)c3)c2N2CC[C@H](N)C2)nc2c(F)cccc21",
    "EC50": "> 1000 nM"
  },
  {
    "compound": "Cc1cccc2nc(-c3cncc(-c4ccnc(C#N)c4)c3N3CC[C@](C)(N)C3)[nH]c12",
    "EC50": "100 to 1000 nM"
  }
]

Turning now to a further record.
# input Report EC50 for Cc1cc(F)cc(-c2cncc(-c3nc4c(F)ccc(F)c4[nH]3)c2N2CC(CN)C2)c1
# output > 1000 nM

====

- target entity: Cytochrome P450 (CYP) 2D6 enzyme (Homo sapiens, UniProt P10635)
- Construct: using pooled male and female human liver microsomes; from tissue; host or cells: pooled male and female human liver microsomes
- Sequence (P10635 whole entry): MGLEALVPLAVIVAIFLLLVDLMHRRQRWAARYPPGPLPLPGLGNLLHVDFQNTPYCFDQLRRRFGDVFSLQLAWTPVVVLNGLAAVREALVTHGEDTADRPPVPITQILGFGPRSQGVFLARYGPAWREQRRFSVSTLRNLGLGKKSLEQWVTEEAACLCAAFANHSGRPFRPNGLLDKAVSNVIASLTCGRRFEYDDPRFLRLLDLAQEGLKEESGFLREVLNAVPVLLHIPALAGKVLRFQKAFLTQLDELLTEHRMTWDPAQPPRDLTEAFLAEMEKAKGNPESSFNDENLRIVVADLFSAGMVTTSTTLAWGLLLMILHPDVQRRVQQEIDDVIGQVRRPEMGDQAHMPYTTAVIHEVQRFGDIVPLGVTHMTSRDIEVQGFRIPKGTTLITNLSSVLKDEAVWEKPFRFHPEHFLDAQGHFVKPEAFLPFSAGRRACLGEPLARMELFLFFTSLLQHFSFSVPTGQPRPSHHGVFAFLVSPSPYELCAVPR
- assay protocol: Cytochrome P450 (CYP) 2D6 enzyme time dependent inhibition (TDI) assay
- Format: in vitro ADME
- condition context: t = 0 min pre-incubation, human liver microsomes; read-out: CYP2D6 inhibition, IC50 (μM) t = 0 min
Could you please report measured IC50 for the items listed next?

Could I get IC50 for every one of these entries?
1. Cc1ccnc2nc(-c3cncc(-c4ccc(F)c(Cl)c4)c3N3CC[C@](C)(N)C3)[nH]c12
2. Cc1cc(-c2cncc(-c3nc4nccc(C)c4[nH]3)c2N2CC[C@](C)(N)C2)ccc1F
3. C[C@]1(N)CCN(c2c(-c3ccnc(C#N)c3)cncc2-c2nc3c(F)cccc3[nH]2)C1
4. Cc1ccnc2[nH]c(-c3cncc(-c4ccc(F)c(C#N)c4)c3N3CC[C@](C)(N)C3)nc12
5. COc1cc(-c2cncc(-c3nc4c(F)cccc4[nH]3)c2N2CC[C@](C)(N)C2)ccn1
6. Cc1ccnc2nc(-c3cncc(-c4ccc(F)c(F)c4)c3N3CC[C@](C)(N)C3)[nH]c12
7. COc1cc(F)cc(-c2cncc(-c3nc4c(C)cccc4[nH]3)c2N2CC[C@H](N)C2)c1

# output
1: 4.2 µM; 2: > 10 µM; 3: > 10 µM; 4: > 10 µM; 5: > 10 µM; 6: > 10 µM; 7: 4.2 µM

====

- target entity: Cytochrome P450 (CYP) 2D6 enzyme (Homo sapiens)
- Construct: using pooled male and female human liver microsomes; from tissue; host or cells: pooled male and female human liver microsomes
- assay protocol: Cytochrome P450 (CYP) 2D6 enzyme time dependent inhibition (TDI) assay
- Format: in vitro ADME
- condition context: t = 0 min pre-incubation, human liver microsomes; read-out: CYP2D6 inhibition, IC50 (μM) t = 0 min
Could you please report measured IC50 for the items listed next?

Study these solved cases before continuing.
[
  {
    "structure": "COc1cc(-c2cncc(-c3nc4nccc(C)c4[nH]3)c2N2CC[C@](C)(N)C2)ccc1F",
    "target entity": "Cytochrome P450 (CYP) 2D6 enzyme (Homo sapiens)",
    "IC50": "> 10 µM"
  },
  {
    "structure": "Cc1cccc2nc(-c3cncc(-c4cc(F)cc(C(F)(F)F)c4)c3N3CC[C@H](N)C3)[nH]c12",
    "target entity": "Cytochrome P450 (CYP) 2D6 enzyme (Homo sapiens)",
    "IC50": "9.5 µM"
  }
]

Could I get IC50 for every one of these entries?
1. Cc1cc(F)cc(-c2cncc(-c3nc4cccc(C)c4[nH]3)c2N2CC[C@H](N)C2)c1
2. Cc1ccnc2nc(-c3cncc(-c4ccc(F)c(C(F)(F)F)c4)c3N3CC[C@](C)(N)C3)[nH]c12
3. Cc1cccc2nc(-c3cncc(-c4cc(F)cc(Cl)c4)c3N3CC[C@H](N)C3)[nH]c12
4. Cc1cccc2[nH]c(-c3cncc(-c4cc(F)cc(C#N)c4)c3N3CC[C@H](N)C3)nc12

# output
1: 7.6 µM; 2: 5.7 µM; 3: 6.4 µM; 4: > 10 µM

Could I get IC50 for every one of these entries?
1. C[C@]1(N)CCN(c2c(-c3ccnc(C(F)(F)F)c3)cncc2-c2nc3c(F)cccc3[nH]2)C1
2. Cc1cccc2nc(-c3cncc(-c4cc(F)cc(F)c4)c3N3CC[C@H](N)C3)[nH]c12
3. Cc1cc(-c2cncc(-c3nc4c(F)cccc4[nH]3)c2N2CC[C@](C)(N)C2)ccn1

# output
1: 5.4 µM; 2: 4.7 µM; 3: > 10 µM
